Measured values drawn from ChEMBL document CHEMBL6182894 for this set.

# TARGET: Nuclear receptor subfamily 4immunitygroup A member 1 (Homo sapiens)
# Sequence (P22736 whole entry): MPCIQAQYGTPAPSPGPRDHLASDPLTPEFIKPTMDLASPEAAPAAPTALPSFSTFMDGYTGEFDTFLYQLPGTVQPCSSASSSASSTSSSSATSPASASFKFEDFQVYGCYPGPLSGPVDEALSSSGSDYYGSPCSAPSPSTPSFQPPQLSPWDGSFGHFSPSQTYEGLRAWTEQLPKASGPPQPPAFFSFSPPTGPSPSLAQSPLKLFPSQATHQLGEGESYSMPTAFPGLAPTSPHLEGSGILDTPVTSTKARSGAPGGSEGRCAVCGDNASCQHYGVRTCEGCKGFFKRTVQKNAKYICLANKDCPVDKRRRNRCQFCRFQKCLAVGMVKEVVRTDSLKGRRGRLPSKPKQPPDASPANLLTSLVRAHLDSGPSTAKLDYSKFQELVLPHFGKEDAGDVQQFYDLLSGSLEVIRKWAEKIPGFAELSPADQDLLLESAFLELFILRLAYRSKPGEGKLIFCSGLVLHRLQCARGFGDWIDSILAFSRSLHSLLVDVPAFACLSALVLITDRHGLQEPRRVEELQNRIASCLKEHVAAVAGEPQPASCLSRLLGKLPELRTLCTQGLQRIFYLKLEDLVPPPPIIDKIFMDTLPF
MEASURED PROPERTY: pKd
As a rule, pKd stands for the negative log10 of the concentration, concentration in M.

The recorded pKd for entry `CCCCCCCC(=O)c1c(O)cc(O)cc1CC(=O)OCC` equals 4.81

* * *

# EXPERIMENTAL DETAILS: Cytotoxicity in HaCaT cells assessed as inhibition of cell growth by MTT assay
# Format: toxicity, cell-based
# EXPERIMENTAL CONDITIONS: human
A collection of compounds and their measured IC50
Write the value in µM as a bare number.

In plain terms, `CCC/C=N/NC(=O)c1cccc2ncccc12` has a documented IC50 of 45.7

Short answer for `O=C(Nc1ccc(C(=O)N/N=C/c2cc(Cl)ccc2Cl)cc1)Nc1ccc2ncccc2c1` : IC50 was 40.1

The recorded IC50 for entry `Cc1ccc(/C=N/NC(=O)c2ccc3ncccc3c2)cc1` equals 39.6
